Molecular target: UniProt:Q2M2I8
ATTRIBUTE MEASURED: Kd (nM)
The answer is to be given in nM; state only the numeric part.

Prompt line: Can you look up the measured Kd of `COc1ncccc1-c1cnc2ccc(N3CC[C@@H](N(C)C(=O)OC(C)C)C3)nn12` for me?
Response line: 1

* * *

Molecular target: AP2-associated protein kinase 1 (Homo sapiens, UniProt Q2M2I8)
Sequence (Q2M2I8 whole entry): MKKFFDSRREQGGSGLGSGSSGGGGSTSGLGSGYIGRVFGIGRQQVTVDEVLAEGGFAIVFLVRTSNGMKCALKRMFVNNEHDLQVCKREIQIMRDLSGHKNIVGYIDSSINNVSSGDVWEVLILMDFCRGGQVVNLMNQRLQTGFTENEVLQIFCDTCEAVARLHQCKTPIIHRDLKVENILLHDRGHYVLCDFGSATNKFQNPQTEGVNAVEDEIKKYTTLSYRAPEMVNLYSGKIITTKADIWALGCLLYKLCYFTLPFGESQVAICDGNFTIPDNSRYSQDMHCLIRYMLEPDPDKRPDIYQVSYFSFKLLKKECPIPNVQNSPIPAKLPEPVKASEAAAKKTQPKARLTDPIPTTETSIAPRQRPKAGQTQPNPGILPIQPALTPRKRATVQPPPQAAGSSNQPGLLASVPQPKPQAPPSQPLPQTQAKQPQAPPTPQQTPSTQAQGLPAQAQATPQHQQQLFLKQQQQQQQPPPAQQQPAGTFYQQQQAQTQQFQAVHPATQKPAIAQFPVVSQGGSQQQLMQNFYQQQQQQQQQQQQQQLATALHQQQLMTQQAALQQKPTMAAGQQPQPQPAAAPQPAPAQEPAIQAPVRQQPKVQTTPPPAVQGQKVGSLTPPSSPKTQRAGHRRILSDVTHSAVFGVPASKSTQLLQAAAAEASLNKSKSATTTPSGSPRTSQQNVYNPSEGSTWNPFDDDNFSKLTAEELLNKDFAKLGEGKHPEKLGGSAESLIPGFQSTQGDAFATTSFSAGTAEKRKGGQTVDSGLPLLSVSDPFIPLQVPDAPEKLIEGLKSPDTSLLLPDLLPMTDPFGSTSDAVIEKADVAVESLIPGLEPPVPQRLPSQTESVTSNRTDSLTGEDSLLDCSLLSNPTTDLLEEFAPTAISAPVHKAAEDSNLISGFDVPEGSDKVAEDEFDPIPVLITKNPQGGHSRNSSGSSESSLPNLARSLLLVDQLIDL
Assay: Inhibition of AAK1 (unknown origin)
pIC50: −log10 of the molar value.
ATTRIBUTE MEASURED: pIC50

COc1ncccc1-c1cnc2ccc(N3CC[C@@H](N(C)C(=O)OC(C)C)C3)nn12    > 8.00

Please examine the following record next.
Prompt line: I would be grateful if you could share the reported pIC50 for `COc1ncccc1-c1cnc2ccc(N3CC[C@@H](N(C)C(=O)OC(C)(C)C)C3)nn12` .
Response line: > 8.00

The measured values listed here are drawn from ChEMBL document CHEMBL5321205.
